B1: VH:VL chains; a variant is named by its letters at X, in order (parent)
chain 1: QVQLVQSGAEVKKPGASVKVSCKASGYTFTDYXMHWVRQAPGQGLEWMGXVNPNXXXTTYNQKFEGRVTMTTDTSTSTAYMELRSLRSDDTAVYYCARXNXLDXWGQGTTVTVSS
chain 2: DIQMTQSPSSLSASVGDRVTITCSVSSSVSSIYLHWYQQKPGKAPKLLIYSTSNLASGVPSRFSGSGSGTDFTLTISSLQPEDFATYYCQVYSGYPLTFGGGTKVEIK

Variants of: B1
Test Details: yeast display scFab, FACS + sequencing
Measured Metric: non-specific binding call

Examples with their reported non-specific binding call follow.
{"Variant Label": "VKTKGVVD", "Measured Metric": "non-specific binding call", "Result": "binds"}
{"Variant Label": "YRRGDASD", "Measured Metric": "non-specific binding call", "Result": "binds"}
{"Variant Label": "SGKKSSGV", "Measured Metric": "non-specific binding call", "Result": "binds"}
{"Variant Label": "AGGGNDGA", "Measured Metric": "non-specific binding call", "Result": "no binding"}
{"Variant Label": "YTRGADVA", "Measured Metric": "non-specific binding call", "Result": "no binding"}
{"Variant Label": "FKTGGAAV", "Measured Metric": "non-specific binding call", "Result": "binds"}

## Input What measured non-specific binding call goes with `YRRRGVVV` ?
## Output binds

## Input Any idea what its non-specific binding call is? The variant is `FKGEGAGV`
## Output no binding

## Input Consider the variant shown here: `SKGRADVY` What is its recorded non-specific binding call?
## Output no binding

## Input # lookup: non-specific binding call of `VKGKGSAA`
## Output binds

## Input Fill blank: measured non-specific binding call of the variant `YGGRGDAD` is ____.
## Output no binding
